Target: human Retinoid X Receptor beta (RXRb), RXRB (gene 6257)
Assay: ATG_RXRb_TRANS: Attagene TRANS-FACTORIAL HepG2 Assay for human Retinoid X Receptor beta (RXRb) (AID 2283013)
Protocol: ATG_TRANS is a cell-based, multiplexed-readout assay that uses HepG2, a human liver cell line, with measurements taken at 24 hours after chemical dosing in a 24-well plate.ATG_RXRb_TRANS is one of 30 assay component(s) measured or calculated from the ATG_TRANS assay. […] This assay endpoint, ATG_RXRb_TRANS, was analyzed in the positive analysis fitting direction relative to DMSO as the negative control and baseline of activity. […]
Inconclusive results are not listed. Active and inactive are the calls of the source. Rule for the calls: active = hit-call score of the fitted dose curve at least 0.9, where 1 is the maximum; inconclusive = response in the unintended direction; inactive = score below 0.9.
Bench note: report the call from T for active, F for inactive

Task: Tell me the recorded outcome of this test for O=c1cc(-c2ccccc2)oc2ccc3ccccc3c12 .
Output: F

Task: Another: C=CC(=O)OCC(CO)(COCC(COC(=O)C=C)(COC(=O)C=C)COC(=O)C=C)COC(=O)C=C
Output: F

Task: Same for C[C@]12CC[C@@H]3c4ccc(O)cc4CC[C@H]3[C@@H]1C[C@@H](O)[C@@H]2O
Output: F

Task: What about CCC(C)c1nccnc1OC (stereo not drawn) ?
Output: F

Task: Again, but for O=C(Nc1ccc(Cl)c(Cl)c1)c1cc(Cl)cc(Cl)c1O
Output: F
